Can you tell me Fold induction of IRF3 activation in THP-1 Dual cells for the items I'm about to list?
- SYSTEM: STING receptor (Homo sapiens, UniProt Q86WV6, G230A/H232R/R293Q/R71H)
- Construct: host or cells: THP-1 Dual cells (human monocytic THP-1 with NF-kB-SEAP and IRF-Lucia reporters)
- Sequence (Q86WV6 whole entry R71H/G230A/H232R/R293Q): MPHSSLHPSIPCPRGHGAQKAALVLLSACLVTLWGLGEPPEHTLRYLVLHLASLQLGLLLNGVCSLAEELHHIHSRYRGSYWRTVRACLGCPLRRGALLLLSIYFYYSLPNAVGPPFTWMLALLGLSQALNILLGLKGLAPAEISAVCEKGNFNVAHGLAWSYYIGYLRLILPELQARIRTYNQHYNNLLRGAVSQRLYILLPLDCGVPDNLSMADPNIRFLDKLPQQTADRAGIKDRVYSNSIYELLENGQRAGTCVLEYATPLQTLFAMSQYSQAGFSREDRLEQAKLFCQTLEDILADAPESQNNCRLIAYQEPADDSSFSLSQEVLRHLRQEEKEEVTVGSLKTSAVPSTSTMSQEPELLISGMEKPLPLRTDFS
- ASSAY_REMARKS: THP-1 Dual assay, IRF pathway (secreted Lucia luciferase reporter; IRF3 activation)
- Format: cell-based
- APPLIED_CONDITIONS: 1 mg/mL STING agonist; 18 h incubation
One number for each entry, in fold.

Completed entries (count: 2):
Recorded result, Nc1ncnc2c1ccn2[C@@H]1O[C@@H]2CO[P@@](=O)(S)O[C@@H]3[C@@H](O)[C@H](n4cnc5c(N)ncnc54)O[C@@H]3COP(=O)(S)O[C@@H]1[C@@H]2O (stereo partly shown) [Example 3b] , Fold induction of IRF3 activation in THP-1 Dual cells: 1.56

Recorded result, Nc1nc2c(ncn2[C@@H]2O[C@@H]3COP(=O)(O)O[C@H]4[C@@H](O)[C@H](n5cnc6c(=O)[nH]c(N)nc65)O[C@@H]4COP(=O)(O)O[C@H]3[C@H]2O)c(=O)[nH]1 [3′,5′-c-di-GMP, reference compound] , Fold induction of IRF3 activation in THP-1 Dual cells: 1.32

Required: Fold induction of IRF3 activation in THP-1 Dual cells, one value per compound below.
1. Nc1ncnc2c1ccn2[C@@H]1O[C@@H]2COP(=O)(S)O[C@@H]3[C@H](O)[C@@H](CO[P@@](=O)(S)O[C@@H]2[C@H]1O)O[C@H]3n1cnc2c(N)ncnc21 (single isomer, unassigned) [Example 1b]
2. Nc1ncnc2c1ccn2[C@@H]1O[C@@H]2COP(=O)(S)O[C@@H]3[C@H](O)[C@@H](CO[P@@](=O)(S)O[C@@H]2[C@H]1O)O[C@H]3n1cnc2c(N)ncnc21 (single isomer, unassigned) [Example 1a]

3.52
9.77

// provenance: patent US12036231B2
